- Test system: SKOV3
- method.notes: CCK-8 cell growth inhibition, SKOV3
- Type: cell-based, human
- protocol.conditions: Homo sapiens, SK-OV-3; CCK-8 assay, 72-h incubation; read-out: Cell Lines IC50 SKOV3
result.type: IC50 (nM)
Could you give me the number in nM? Just the number is fine.

Task: If you can, please state the reported IC50 value of CC(C)n1nnc2ccc(-c3nc(Nc4ccc(CNC(=O)C5(C(=O)Nc6ccccc6)CC5)cc4)ncc3F)cc21 [12O] .
Output: 29
